# Tested on: human tryptase-like protein
# procedureSummary: Effects of inhibitors on the trypsin-like activity
# Type: biochemical
# runConditions: 10 µM inhibitor; substrate Boc-Gln-Gly-Arg-MCA
Non-standard residues stand in square brackets, D forms with d. Residues, ends and D or L forms follow the SMILES beside them. *: point of attachment. Sta = CC(C)C[C@H](N)[C@@H](O)CC(=O)O; Isovaleryl = CC(C)CC(=O)*
Please mark 1 if the recorded Inhibition (%) is equal to or greater than 9%, and -1 if it falls below.

{"columns": ["compound", "classAssignment"],
 "data": [
  ["CC(C)CC(=O)N[C@H](C(=O)N[C@H](C(=O)N[C@@H](CC(C)C)[C@@H](O)CC(=O)N[C@@H](C)C(=O)N[C@@H](CC(C)C)[C@@H](O)CC(=O)O)C(C)C)C(C)C [Pepstatin] (Isovaleryl-VV[Sta]A[Sta]-OH)", -1],
  ["Cc1ccc(S(=O)(=O)N[C@@H](CCCCN)C(=O)CCl)cc1 [TLCK, Nα-p-tosyl-L-lysine chloromethyl ketone]", 1],
  ["CC(C)C[C@H](NC(=O)N[C@H](C(=O)N[C@@H](CCC(N)=O)C(=O)N[C@@H](C)C=O)[C@@H]1CCNC(=N)N1)C(=O)O [Elastatinal]", 1],
  ["CC(=O)N[C@@H](CC(C)C)C(=O)N[C@@H](CC(C)C)C(=O)N[C@H](C=O)CCCNC(=N)N [Leupeptin]", 1],
  ["CC(C)C[C@H](NC(=O)[C@@H](NC(=O)N[C@@H](Cc1ccccc1)C(=O)O)[C@@H]1CCN=C(N)N1)C(=O)N[C@H](C=O)Cc1ccccc1 [Chymostatin]", 1],
  ["N=C(N)c1ccccc1 [Benzamidine]", -1]
]}
